The values you see were collected from PubChem BioAssay (NCI).

test: NCI Yeast Anticancer Drug Screen. Data for the cln2 rad14 strain (AID 165); conditions: S. cerevisiae cln2 rad14 strain, at 50.0 µM, hits give high values
About 79,000 compounds went through this panel and 15% of them were active in at least one assay; those are over-represented in the sample as a whole.
Quick rule for you: growth inhibition at 30% or higher means Condition met, lower means Condition not met.

Below, 3 molecules whose answers are already recorded.
>>> class_assignment("CCC[CH2][Sn]1([CH2]CCC)[O]N=Cc2ccccc2[O]1")
"Condition met"
>>> class_assignment("N#C[S-].[Ce+3].c1ccc(-c2ccccn2)nc1.c1ccc(-c2ccccn2)nc1.c1ccc(-c2ccccn2)nc1")
"Condition met"
>>> class_assignment("O=C1C(=O)c2cccc3cccc1c23")
"Condition not met"

Evaluate CCC[CH2][Sn]1([CH2]CCC)[O]Cc2nc(C)ccc2[O]1 : growth inhibition at minimum 30%?
Condition met

Now consider O=[N+]([O-])C(Br)CO (stereo unspecified) and answer again.
Condition met

Now consider CCCCCCNC(=O)CI and answer again.
Condition not met

Now consider CCN(CC)CCBr and answer again.
Condition not met

Now consider COc1cccc2c1C(=O)c1c(O)c3c(c(O)c1C2=O)C[C@@](O)(/C(C)=N\O)C[C@@H]3OC1CC(N)C(O)C(C)O1 (stereo partly specified) and answer again.
Condition not met

Now consider COc1cc(C2c3cc4c(cc3[C@@H](Nc3ccc(F)cc3)C3COC(=O)[C@H]23)OCO4)cc(OC)c1O (stereo partly specified) and answer again.
Condition met

Now consider O=C1NC(=S)NC(=O)C1=C/C=C/c1ccccc1 and answer again.
Condition met

Now consider Cn1cnc(N)c1C(=N)[Se] and answer again.
Condition not met
